- STUDY_SYSTEM: T1, recombinant human IL-23 (human, UniProt P29460 23-328)
- T1 sequence 1: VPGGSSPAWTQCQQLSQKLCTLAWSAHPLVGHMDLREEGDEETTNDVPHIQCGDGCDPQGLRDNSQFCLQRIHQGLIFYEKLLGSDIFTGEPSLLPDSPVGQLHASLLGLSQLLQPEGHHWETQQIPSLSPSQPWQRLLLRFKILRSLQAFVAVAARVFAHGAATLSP
- T1 sequence 2: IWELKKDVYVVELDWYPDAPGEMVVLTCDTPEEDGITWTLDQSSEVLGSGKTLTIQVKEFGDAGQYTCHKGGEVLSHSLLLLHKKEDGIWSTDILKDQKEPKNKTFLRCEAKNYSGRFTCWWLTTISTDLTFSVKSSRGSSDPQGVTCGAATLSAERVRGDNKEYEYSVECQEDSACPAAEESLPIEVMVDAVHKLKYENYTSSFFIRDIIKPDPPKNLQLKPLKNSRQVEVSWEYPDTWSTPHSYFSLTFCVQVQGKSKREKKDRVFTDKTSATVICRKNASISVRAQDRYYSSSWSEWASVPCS
- METHOD_NOTES: cell-based or functional assay
Field: IC50, inhibition of IL-17 production from IL-23 stimulated mouse splenocytes. Provide a value for each of the binders that follow.
Give just the number in nM; leave the unit off.

stdin: // IC50, inhibition of IL-17 production from IL-23 stimulated mouse splenocytes lookup, key: Mouse antibody 6B8 (antibody, V domains shown) VH: QVQLQQSDAELVKPGTSVKTSCKISGNTFTDQTIHWMKQRPEQGLEWIGYIYPRDDSPKYNENFKGKATLTADKSSSTAYMQLNSLTSEDSAVYFCAIPDRSGYAWFIYWGQGTLVTVSS VL: DIVMTQSHKFLSTSVGDRVTITCKASRDVAIAVAWYQQKPGQSPKLLLFWASTRHTGVPDRFTGSGSRTDFTLTISNVQSEDLADYFCHQYSSYPFTFGSGTKLEIK
stdout: 0.013

stdin: Try this binder next: 26F7 (antibody, V domains shown) VH: EVQLQQSGPELVKPGASVKISCKASGYTFTDYYMNWVRQSHGESLEWIGDFNHNNDVITYNPKFKGKVTLTVEKSSTTAYMELRSLSSEDSAVYYCARGLRGYYAMDYWGQGTSVTVSS VL: DIVLTQSPASLAVSLGQRATISCRASKSVRFSDYFYMHWYQQKPGQPPKLLIYLASNLESGVPARFSGSGSGTDFTLNIHPVEEEDAATYYCQNSRELPYTFGGGTKLEIK
stdout: 0.027

stdin: Try this binder next: 9D12 (antibody, V domains shown) VH: QVQLKESGPVLVAPSQSLSITCTVSGFSLNNFAISWVRQPPGKGLEWLGAIWTGGGTNYNSALKSRLSISKDNSKSQVFLKMNSLQTDDTARYYCVRKDYSYGGAMDYWGQGTSVTVSS VL: DIALTQSPASLAVSLGQRATISCRASETINFYGTSFMHWYQQKPGQSPKLLIYRASNLESGIPARFSGSGSRTDFTLTINPVEADDVATYYCQQTNEDPYTFGGGTKLEIK
stdout: 0.059

stdin: Try this binder next: Chimeric 18E5 (antibody, V domains shown) VH: EVQLQQSGPELVKPGAAVKMSCKASGYTFTRYLIHWVKQKPGQGLEWIGYINPYNDGTKYNEKFKGKATLTSDKSSSTAYMELSSLTSEDSAVYYCTSNWDLDYWGQGTTLTVSS VL: DIVMTQSPATLSVTPGDRVSLSCRASQSISDYLYWYQQKSHESPRLLIKFASQSISGIPSRFTGSGSGSDFTLSIDSVEPDDVGVFFCQNGHSFPFTFGGGTKLEIK
stdout: 0.031

stdin: Try this binder next: 74H3 (antibody, V domains shown) VH: EVQLQQSGPELVKPGASVKMSCKASGYTFTRYLMHWVKQKPGQGLEWIGYINPYNDGTKYNERFKGKATLTSDKSSSTAYMELSSLTSEDSAVYYCARNWDVPYWGQGTLVTVSA VL: DIQMTQSPASLSASVGETVIFTCRASENIDSYLAWYQQKQGKSPQLLVYAATNLADGVPSRFSGSGSGTQYSLKINSLQSEDVARYYCLHYYSTPFTFGSGTELEIK
stdout: 1.35
